The reported numbers originate from PubChem BioAssay.

Method: reversal of MRP1-mediated doxorubicin resistance, pilot screen, H69AR cells, doxorubicin co-treatment (AID 601)
Assay context: H69AR cells + 2 uM doxorubicin, CellTiter-Glo, 72 h; measured here: viability with 2 uM doxorubicin; at 10 µM; stronger effect = lower value
Experimental readout: viability (%)
Answers are plain numbers, in %.

CC1CCN(S(=O)(=O)c2ccc(S(=O)(=O)NCC(=O)C(C)(C)C)cc2)CC1: 85.3
Cc1cccc(C2c3c(n(C)c(=O)n(C)c3=O)N=C3c4ccccc4C(=O)C32)c1 (stereo unspecified): 34
CCN(CC)C(=O)c1sc(NC(=O)c2ccco2)c(C#N)c1C: 86.6

Fill in viability for each of the 7 compounds listed.
1. COc1ccc(C)cc1NC(=O)CN(Cc1nnc(-c2ccc(Cl)cc2)o1)C1CCCC1
2. N#Cc1c(N2C(=O)C3C4C=CC(C4)C3C2=O)sc2c1CCC2 (stereo unspecified)
3. O=C1CC(N2CCOCC2)C(=O)N1c1ccccc1Cl (stereo unspecified)
4. O=C(Nc1cccc(C(F)(F)F)c1)c1ccco1
5. CCCNC(=O)NC(C(=O)OC)C12CC3CC(CC(C3)C1)C2 (stereo unspecified)
6. CCOC(=O)c1cc2sccc2n1Cc1ccccc1
7. COc1ccc(OCc2nc(N)nc(Nc3cccc(C)c3C)n2)cc1

Reply |
1: 38.6; 2: 100; 3: 96.6; 4: 84; 5: 91.6; 6: 80.7; 7: 96

Report viability for each item below.
1. Cc1cc(C)c2[nH]c(=O)c(C(c3nnnn3Cc3ccc4c(c3)OCO4)N3CCC(C)CC3)cc2c1 (stereo unspecified)
2. CCN(C(=O)COC(=O)c1cc(C)n(-c2ccc(F)cc2)c1C)C1CCS(=O)(=O)C1 (stereo unspecified)
3. CCOC(=O)Nc1sc(=S)n(C)c1C

Reply |
93.1
104
94.9

Take each entry in turn and give its viability.
1. O=C(c1ccc2c(c1)OCCO2)C1CCN(C(=O)c2ccc(F)cc2)CC1
2. CC1=Nn2c(nnc2-c2cc(-c3ccccc3)n[nH]2)SC1
3. O=C(Nc1ccc2snnc2c1)N1CCSCC1
4. COc1ccc(-c2nc(C#N)c(NCCCN(C)C)o2)cc1OC
5. CCOC(=O)c1cnc(-n2cc(C)cn2)nc1Nc1ccccc1OC

Reply |
99.9
84.4
96.2
93.1
69.8

Working through the 5 compounds below one at a time, give viability for each.
1. COc1ccc2c(C(=O)CN(C)C3CCCCC3)c[nH]c2c1
2. O=[n+]1c2c(n([O-])c3c1CCCC3)CCCC2
3. COc1nc(N2CCOCC2)nc(-n2cccc2)n1
4. CCOC(=O)N1CCC(O)(c2cc(C)c(C)cc2C)CC1
5. O=C(CCn1c(=S)[nH]c2cc3c(cc2c1=O)OCO3)N1CCN(C2CCCCC2)CC1

Reply |
[74.9, 96.9, 73.6, 90.2, 92.8]

Consider the following items and state reported viability for each.
1. CCCCC(=O)Nc1nn(CCC)c2nc3ccccc3cc12
2. COc1ccc(CCNC(=O)c2ccncc2)cc1OC
3. CCOCCCNC(=O)CS(=O)(=O)Cc1nc(-c2cccc(OC)c2)oc1C
4. O=C(NCCO)c1cccc2c1C(=O)c1ccccc1-2

Reply |
1. 102
2. 85.3
3. 87.8
4. 85.8

Give viability for each of the items listed below.
1. CCn1c(COc2cccc3ccccc23)nnc1SCC(N)=O
2. Cc1ccc(C)c(N2CCN(C(=O)CCCn3c(=S)[nH]c4cc5c(cc4c3=O)OCO5)CC2)c1
3. O=S(=O)(Nc1cccnc1)c1cc(Cl)ccc1Cl

Reply |
78.2
89.2
87.7

Ask | Give the measured viability for CCCCOc1ccc(NC(=O)Cn2c(=O)ccc3c(C)cc(C)nc32)cc1
Reply | 79.5
